Origin of values: paper PMC6222789

- Test system: TNF-α-induced adhesion of U937 monocytic cells to HT-29 cells
- procedure.summary: TNF-α-induced colonic epithelial cell adhesion assay
- Assay type: cell-based, human
- stated.conditions: Homo sapiens, Epithelial cell, 10 uM; U937 adhesion to HT-29 cells, TNF-α-induced
- Protocol: Synthesized mollugin derivatives were subjected to the colonic epithelial cell adhesion assay, which mimics the initial stage of colon inflammation. […] U937 monocytic cell adhesion to colonic epithelial cells was evaluated using human U937 pre-monocytic cells, which were prelabeled with 2′,7′-bis(2-carboxyethyl)-5(6)-carboxyfluorescein acetoxymethyl ester (BCECF/AM, 10 μg/mL) for 1 h at 37 °C. […]
Please mark Satisfied if the recorded inhibition at 10 µM is equal to or greater than 40%, and Not satisfied if it falls below.

Before answering, review these 4 worked examples.
CN(C)CCOC(=O)c1c2c(c3ccccc3c1O)OC(C)(C)C=C2	Not satisfied
COC(=O)c1c2c(c3ccccc3c1O)OC(C)(C)C=C2	Not satisfied
COC(=O)c1c2c(c3ccc(C(F)(F)F)cc3c1O)OC(C)(C)C=C2 [14c]	Satisfied
CN1CCN(CCOC(=O)c2c3c(c4ccccc4c2O)OC(C)(C)C=C3)CC1	Satisfied

Consider the additional compound presented here.
Can CC1(C)C=Cc2c(C(=O)OCCc3ccccn3)c(O)c3ccccc3c2O1 be said to have inhibition at 10 µM at or above 40%?
Satisfied

###

- System: TNF-α-induced adhesion of U937 monocytic cells to HT-29 cells
- procedure.summary: TNF-α-induced colonic epithelial cell adhesion assay
- Format: cell-based, human
- stated.conditions: Homo sapiens, Epithelial cell, 10 uM; U937 adhesion to HT-29 cells, TNF-α-induced
Please mark y if the recorded inhibition at 10 µM is equal to or greater than 40%, and n if it falls below.

Can Cc1ccc2c3c(c(C(=O)OCCN4CCOCC4)c(O)c2c1)C=CC(C)(C)O3 [15b] be said to have inhibition at 10 µM at or above 40%?
n

###

- procedure.summary: Metabolic stability, mouse liver microsomes
- Type: in vitro ADME
- stated.conditions: 30 min, 1 μM
Please mark true if the recorded Metabolic Stability (% Remain, 30 min) Mouse is equal to or greater than 20 % Remain, and false if it falls below.

Can COC(=O)c1c2c(c3ccc(F)cc3c1O)OC(C)(C)C=C2 [14a] be said to have Metabolic Stability (% Remain, 30 min) Mouse at or above 20 % Remain?
true

Can Cc1ccc2c3c(c(C(=O)OCCN4CCOCC4)c(O)c2c1)C=CC(C)(C)O3 [15b] be said to have Metabolic Stability (% Remain, 30 min) Mouse at or above 20 % Remain?
false

Can CN1CCC(OC(=O)c2c3c(c4ccccc4c2O)OC(C)(C)C=C3)CC1 be said to have Metabolic Stability (% Remain, 30 min) Mouse at or above 20 % Remain?
false

Can COC(=O)c1c2c(c3ccc(C)cc3c1O)OC(C)(C)C=C2 [14b] be said to have Metabolic Stability (% Remain, 30 min) Mouse at or above 20 % Remain?
false

Can CC1(C)C=Cc2c(C(N)=O)c(O)c3ccccc3c2O1 be said to have Metabolic Stability (% Remain, 30 min) Mouse at or above 20 % Remain?
false

###

- procedure.summary: Metabolic stability, dog liver microsomes
- Format: in vitro ADME
- stated.conditions: 30 min, 1 μM
Each item that follows carries a reported Metabolic Stability (% Remain, 30 min) Dog.
Numbers only; they are read as % Remain.

CN(C)CCCOC(=O)c1c2c(c3ccccc3c1O)OC(C)(C)C=C2 [6b]	9
COC(=O)c1c2c(c3ccc(F)cc3c1O)OC(C)(C)C=C2 [14a]	52
CN1CCC(OC(=O)c2c3c(c4ccccc4c2O)OC(C)(C)C=C3)CC1 [6g]	36
Cc1ccc2c3c(c(C(=O)OCCN4CCOCC4)c(O)c2c1)C=CC(C)(C)O3 [15b]	57

Return value of Metabolic Stability (% Remain, 30 min) Dog for input CC1(C)C=Cc2c(C(=O)OCCN3CCOCC3)c(O)c3ccccc3c2O1 [6d] , no commentary.
45

Return value of Metabolic Stability (% Remain, 30 min) Dog for input CC1(C)C=Cc2c(C(N)=O)c(O)c3ccccc3c2O1 [6k] , no commentary.
6
